# Tested on: primary human hepatic stellate cells (donor 1)
# Experiment notes: scaled lipid accumulation score (0 = DMSO-like, 1 = nortriptyline-like); higher = stronger HSC inactivation (lipid re-accumulation), active = hit call of the paper
# Assay setup: library stock concentration: 10 mM; 48 h
Structures can show the parent of a compound that is named as a salt. Among all 5,800 compounds or so, about 620 (11%) showed activity.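 Rule for the calls: active = score above a cut-off or among the top three wells of a plate; in these data no inactive exceeds 0.85.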 Only a selection was taken, and actives are over-represented in it overall.
Outcome codes: active, inactive

Compound	System under test	Assigned class
CN(C)CCSSCCNC(=O)C1CCN(C(=O)CSc2ccc(Cl)cc2)CC1	primary human hepatic stellate cells (donor 1)	inactive
O=c1c(-c2ccccc2)c1-c1ccccc1 [diphenylcyclopropenone]	primary human hepatic stellate cells (donor 1)	active
Nc1nc2c(ccc3ccccc32)s1	primary human hepatic stellate cells (donor 1)	inactive
CN(CCCN1c2ccccc2CCc2ccccc21)CC(=O)c1ccc(Cl)cc1 [Lofepramine]	primary human hepatic stellate cells (donor 1)	inactive
C[C@H]1c2cccc(O)c2C(O)=C2C(=O)[C@]3(O)C(O)=C(C(N)=O)C(=O)[C@@H](N(C)C)[C@@H]3[C@@H](O)[C@@H]21 [Doxycycline Hyclate]	primary human hepatic stellate cells (donor 1)	inactive
CN(CCCN1c2ccccc2CCc2ccccc21)CC(=O)c1ccc(Cl)cc1	primary human hepatic stellate cells (donor 1)	inactive
CN(C)CCC(c1ccc(Cl)cc1)c1ccccn1 (centres undefined) [Chlorpheniramine Maleate]	primary human hepatic stellate cells (donor 1)	inactive
O=c1c2ccccc2oc2ccccc12 [Xanthone]	primary human hepatic stellate cells (donor 1)	inactive
CN(C)CCCN1c2ccccc2CCc2ccccc21	primary human hepatic stellate cells (donor 1)	inactive
COc1cccc(-c2cc(F)ccc2[C@H]2Cc3nc(N)nc(C)c3C(=O)N2)n1	primary human hepatic stellate cells (donor 1)	active
CCOc1nc2cccc(C(=O)OC(C)OC(=O)OC3CCCCC3)c2n1Cc1ccc(-c2ccccc2-c2nn[nH]n2)cc1 (centres undefined) [Candesartan cilextil]	primary human hepatic stellate cells (donor 1)	inactive
CN(C)CCCN1c2ccccc2CCc2ccccc21 [Imipramine hydrochloride]	primary human hepatic stellate cells (donor 1)	inactive
N=C1C=CC(=C(c2ccc(N)cc2)c2ccc(N)cc2)C=C1 [Pararosaniline pamoate]	primary human hepatic stellate cells (donor 1)	inactive
CN(C)CC[C@@H](c1ccc(Cl)cc1)c1ccccn1	primary human hepatic stellate cells (donor 1)	inactive
CN(C)CCC(c1ccc(Br)cc1)c1ccccn1 (centres undefined) [Brompheniramine maleate]	primary human hepatic stellate cells (donor 1)	inactive
Cc1cc(C)cc(NC(=O)Cc2ccc(OC(C)(C)C(=O)O)cc2)c1 [Efaproxiral Sodium]	primary human hepatic stellate cells (donor 1)	inactive
COc1cc2c(cc1OC)-c1cc3nc4ccccc4nc3n1C(C)(C)C2	primary human hepatic stellate cells (donor 1)	active

# credit: the supplement of paper PMC9135407
